- Tested on: HeLa S3
- measurement_protocol: Cytotoxicity against human HeLa S3 cells assessed as inhibition of cell growth incubated for 72 hrs by MTT assay
- Assay type: functional, cell-based
- run_parameters: Homo sapiens, HeLa S3, 72 h
recorded_endpoint: IC50

Entry C=C(CC[C@@H]1[C@@]2(C)CC[C@H](Br)C(C)(C)[C@@H]2CC[C@@]1(C)O)C(=O)CO (stereo in doubt; form 1) has what IC50? 8.1 µM
